Below: a set of entries, each annotated with reported inhibition at 10 µM.
Target: CDK5/p35 (Homo sapiens, UniProt Q00535)
Sequence (Q00535 whole entry): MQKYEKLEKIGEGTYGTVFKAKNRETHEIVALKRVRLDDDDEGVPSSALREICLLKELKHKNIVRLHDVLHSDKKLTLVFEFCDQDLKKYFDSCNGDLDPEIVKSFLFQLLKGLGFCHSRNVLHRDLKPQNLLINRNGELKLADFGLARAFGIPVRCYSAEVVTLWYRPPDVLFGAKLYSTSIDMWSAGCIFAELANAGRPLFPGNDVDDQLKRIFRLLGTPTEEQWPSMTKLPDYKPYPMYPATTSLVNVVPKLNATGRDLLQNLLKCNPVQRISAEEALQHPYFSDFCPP
Sequence (Q15078 whole entry partner): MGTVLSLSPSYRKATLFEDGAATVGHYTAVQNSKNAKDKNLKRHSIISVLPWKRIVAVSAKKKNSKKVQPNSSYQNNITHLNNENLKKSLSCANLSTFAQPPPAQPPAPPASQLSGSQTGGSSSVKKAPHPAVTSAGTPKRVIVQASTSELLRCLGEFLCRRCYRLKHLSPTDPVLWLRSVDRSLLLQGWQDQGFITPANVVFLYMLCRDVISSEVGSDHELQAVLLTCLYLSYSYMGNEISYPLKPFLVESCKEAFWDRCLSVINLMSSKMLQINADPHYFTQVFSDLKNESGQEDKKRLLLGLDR
Test: Z'-LYTE SelectScreen biochemical kinase assay CDK5/p35
Details: 10 μmolar compound concentration; ATP at Km app; read-out: CDK5/p35 inhibition

CCn1ncc2c1CCC(Nc1nc3c(-c4cccnc4OC)cccn3n1)C2 (stereo not shown) | < 40%
CCCCCn1ncc2c1CCC(Nc1nc3c(-c4ccc(F)cc4C)cccn3n1)C2 (stereo not shown) | < 40%
CCn1nnc2c1CCC(Nc1nc3c(-c4ccc(F)cc4C)cccn3n1)C2 (stereo not shown) | < 40%
CCn1ncc2c1CCC(Nc1nc3c(-c4ccccc4)cccn3n1)C2 (stereo not shown) | < 40%
CCn1ncc2c1CCC(Nc1nc3c(-c4ccc(C)nc4)cccn3n1)C2 (stereo not shown) | < 40%
Cc1cc(F)ccc1-c1cccn2nc(Nc3ccc4c(cnn4C)c3)nc12 | 40 to 80%
CCn1ncc2c1CC[C@@H](Nc1nc3c(-c4ccc(F)c(Cl)c4)cccn3n1)C2 | < 40%
Cc1cc(F)ccc1-c1cccn2nc(NC3CCc4c(cnn4CC(C)C)C3)nc12 (stereo not shown) | < 40%
CCn1ncc2c1CC[C@H](Nc1nc3c(-c4ccc(F)c(Cl)c4)cccn3n1)C2 | < 40%
Fc1cccc(-c2cccn3nc(Nc4ccc5[nH]cnc5c4)nc23)c1 [Cpd. 293 in WO09155551, reference compound] | > 80%

Task: Notebook entry, CDK5/p35 (Homo sapiens, UniProt Q00535) assay: inhibition at 10 µM of CCn1ncc2c1CCC(Nc1nc3c(-c4cncc(OC)c4)cccn3n1)C2 (stereo not shown) = ?
Result: 40 to 80%

Task: Notebook entry, CDK5/p35 (Homo sapiens, UniProt Q00535) assay: inhibition at 10 µM of CCn1ncc2c1CCC(Nc1nc3c(-c4ccc(F)cc4C)cccn3n1)C2 (stereo not shown) = ?
Result: < 40%

Task: Notebook entry, CDK5/p35 (Homo sapiens, UniProt Q00535) assay: inhibition at 10 µM of CCn1ncc2c1CCC(Nc1nc3c(-c4ccccc4C)cccn3n1)C2 (stereo not shown) = ?
Result: 40 to 80%
